Target: T1, Full length human PD1 (huPD1) on cells (human, UniProt Q15116 25-288)
T1 construct: on T cells of human donors in the MLR and CMV assays (functional); also called PD-1 on Jurkat cells
T1 sequence (Q15116 25-288 limits assumed): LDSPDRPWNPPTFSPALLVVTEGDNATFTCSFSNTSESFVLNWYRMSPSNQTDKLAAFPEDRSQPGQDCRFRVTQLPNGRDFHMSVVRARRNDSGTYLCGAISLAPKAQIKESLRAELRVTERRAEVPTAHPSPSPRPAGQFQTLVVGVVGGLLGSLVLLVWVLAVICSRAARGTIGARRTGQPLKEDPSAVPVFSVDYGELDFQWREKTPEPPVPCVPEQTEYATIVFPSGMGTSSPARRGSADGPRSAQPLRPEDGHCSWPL
Test: flow cytometry, PHA-stimulated Jurkat cells
Task for the reader: assign each of the following binders its reported EC50.
Could you give me the number in µg/mL? Just the number is fine.

Prompt: Form field: reported EC50 of PD1B187 (antibody, V domains shown, Tested as IgG2sigma; also called PD1H3/PD1L148) VH: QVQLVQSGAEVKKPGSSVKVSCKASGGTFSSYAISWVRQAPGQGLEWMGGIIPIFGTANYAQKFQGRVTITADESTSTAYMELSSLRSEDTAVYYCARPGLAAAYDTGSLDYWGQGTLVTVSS VL: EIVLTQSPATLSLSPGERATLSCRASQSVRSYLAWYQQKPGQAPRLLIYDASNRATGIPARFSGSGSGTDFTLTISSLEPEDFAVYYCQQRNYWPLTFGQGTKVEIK
Completion: 0.09

Prompt: Form field: reported EC50 of PD1B184 (antibody, human IgG2, kappa, V domains shown, IgG2sigma/kappa; VH 43, VL 50; also called PD1H3/PD1L128) VH: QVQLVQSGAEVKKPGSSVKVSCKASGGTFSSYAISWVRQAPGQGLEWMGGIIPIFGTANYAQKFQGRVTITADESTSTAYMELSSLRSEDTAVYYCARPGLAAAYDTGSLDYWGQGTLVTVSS VL: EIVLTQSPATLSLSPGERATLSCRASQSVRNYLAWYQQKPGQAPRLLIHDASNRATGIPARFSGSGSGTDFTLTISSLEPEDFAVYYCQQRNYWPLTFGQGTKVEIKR
Completion: 0.08

Prompt: Form field: reported EC50 of PD1B192 (antibody, human IgG2, kappa, V domains shown, IgG2sigma/kappa; VH 43, VL 57; also called PD1H3/PD1L133) VH: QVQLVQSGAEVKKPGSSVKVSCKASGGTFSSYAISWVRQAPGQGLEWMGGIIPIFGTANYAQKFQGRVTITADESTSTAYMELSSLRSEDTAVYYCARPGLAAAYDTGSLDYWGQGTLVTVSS VL: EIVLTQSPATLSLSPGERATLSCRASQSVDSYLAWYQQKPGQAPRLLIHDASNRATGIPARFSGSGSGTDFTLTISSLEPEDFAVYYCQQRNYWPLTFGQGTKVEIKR
Completion: 0.06

Source of measurements: patent US20210277110A1
